// provenance: patent US20210395357A1

Each entry below carries its recorded IC50.
biological target: rhIL-6-His (recombinant human IL-6, Val30 to Met212, C-terminal 6 His) (human, UniProt P05231 30-212); experiment: competition ELISA: antibody pre-incubated with rhIL-6-His, binding to coated rhIL-6R detected with anti-His-HRP
Sequence (P05231 other isoform, or with tags, fused parts or gaps limits assumed): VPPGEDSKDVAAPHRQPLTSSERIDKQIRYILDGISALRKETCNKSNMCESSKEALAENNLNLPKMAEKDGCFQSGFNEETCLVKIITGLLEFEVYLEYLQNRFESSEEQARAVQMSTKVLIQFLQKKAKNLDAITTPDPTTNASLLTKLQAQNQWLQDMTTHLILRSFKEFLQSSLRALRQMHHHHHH
Please respond with the number in µg/mL and leave the unit unwritten.

Example entries and their recorded answers appear below.
>  <binder>
HZ-0408b (antibody, human IgG1, kappa, V domains shown, Humanized from murine 140-4; IgG1 type antibody from 293F cells; also called L1/H3) VH: QVTLKESGPVLVKPTETLTLTCTVSGFSLSTSGMGVGWIRQPPGKALEWLAHIWWDDDKRYNSALKSRLTISKDTSKSQVVLTMTNMDPVDTATYYCARIGGLYVDYLMDYWGQGTLVTVSS VL: EIVLTQSPDFQSVTPKEKVTITCRASQSISDYLHWYQQKPDQSPKLLIKYASQSISGVPSRFSGSGSGTDFTLTINSLEAEDAATYYCQNGHSFPWTFGQGTKVEIKR

>  <IC50 [µg/mL]>
0.53

$$$$
>  <binder>
HZ-0408a (antibody, human IgG1, kappa, V domains shown, Humanized from murine 140-4; expressed in 293F cells and captured on Protein A as an IgG1 type antibody; also called L1/H2) VH: QVTLKESGPALVKPTQTLTLTCTFSGFSLSTSGMGVGWIRQPPGKALEWLAHIWWDDDKRYNSALKSRLTISKDTSKNQVVLTMTNMDPVDTATYYCARIGGLYVDYLMDYWGQGTLVTVSS VL: EIVLTQSPDFQSVTPKEKVTITCRASQSISDYLHWYQQKPDQSPKLLIKYASQSISGVPSRFSGSGSGTDFTLTINSLEAEDAATYYCQNGHSFPWTFGQGTKVEIKR

>  <IC50 [µg/mL]>
0.72

$$$$

For the binder Siltuximab (antibody, V domains shown) VH: EVQLVESGGKLLKPGGSLKLSCAASGFTFSSFAMSWFRQSPEKRLEWVAEISSGGSYTYYPDTVTGRFTISRDNAKNTLYLEMSSLRSEDTAMYYCARGLWGYYALDYWGQGTSVTVSS VL: QIVLIQSPAIMSASPGEKVTMTCSASSSVSYMYWYQQKPGSSPRLLIYDTSNLASGVPVRFSGSGSGTSYSLTISRMEAEDAATYYCQQWSGYPYTFGGGTKLEIK , give its reported IC50.
12.5
